From: patent US20250304537A1

study system: recombinant human Myt1 (full length PKMYT1) (Homo sapiens (Human))
assay remarks: Recombinant human Myt1 kinase assay (ADP-Glo)
run conditions: 10 μM ATP
Entries are grouped by IC50 into these classes: low (below 0.009 µM), middle (0.009 µM to below 0.03 µM), high (0.03 µM or more)

Record excerpt, results attached:
Sort Cc1ccc2[nH]ncc2c1-c1nc(-c2cccc3ncsc23)nc(C(N)=O)c1N [Compound 380] into one of the categories.
low

Sort Cc1ccc2[nH]ncc2c1-c1nc(-c2ccccc2NC(=O)C(C)(C)C)cc(C(N)=O)c1N [Compound 398] into one of the categories.
low

Sort Cc1ccc2[nH]ncc2c1-c1cc(-c2ccncn2)nc(C(N)=O)c1N [Compound 105] into one of the categories.
middle

Sort Cc1ccc2[nH]ncc2c1-c1nc(-c2ccc(S(C)(=O)=O)cc2NC2CCOCC2)nc(C(N)=O)c1N [Compound 831] into one of the categories.
low

Sort Cc1ccc(O)c(C)c1-c1cc(-c2cccc(C(F)(F)F)n2)nc(C(N)=O)c1N [Compound 60] into one of the categories.
middle

Further cases:
Sort CNC(=O)c1cccc(-c2nc(C(N)=O)c(N)c(-c3c(C)ccc4[nH]ncc34)n2)c1 [Compound 285] into one of the categories.
middle

Sort Cc1ccc2[nH]ncc2c1-c1nc(-c2cccnc2NC2CC(OC(F)F)C2)nc(C(N)=O)c1N (stereo not shown) [Compound 893] into one of the categories.
low

Sort Cc1ccc2[nH]ncc2c1-c1nc(-c2ccccc2NC2CCC(F)(F)CC2)nc(C(N)=O)c1N [Compound 453] into one of the categories.
middle

Sort Cc1ccc2[nH]ncc2c1-c1nc(-c2cnccc2NC(=O)OC(C)(C)C)nc(C(N)=O)c1N [Compound 465] into one of the categories.
low

###

study system: recombinant human Myt1 (full length PKMYT1) (Homo sapiens (Human), UniProt Q99640)
Sequence (Q99640 whole entry): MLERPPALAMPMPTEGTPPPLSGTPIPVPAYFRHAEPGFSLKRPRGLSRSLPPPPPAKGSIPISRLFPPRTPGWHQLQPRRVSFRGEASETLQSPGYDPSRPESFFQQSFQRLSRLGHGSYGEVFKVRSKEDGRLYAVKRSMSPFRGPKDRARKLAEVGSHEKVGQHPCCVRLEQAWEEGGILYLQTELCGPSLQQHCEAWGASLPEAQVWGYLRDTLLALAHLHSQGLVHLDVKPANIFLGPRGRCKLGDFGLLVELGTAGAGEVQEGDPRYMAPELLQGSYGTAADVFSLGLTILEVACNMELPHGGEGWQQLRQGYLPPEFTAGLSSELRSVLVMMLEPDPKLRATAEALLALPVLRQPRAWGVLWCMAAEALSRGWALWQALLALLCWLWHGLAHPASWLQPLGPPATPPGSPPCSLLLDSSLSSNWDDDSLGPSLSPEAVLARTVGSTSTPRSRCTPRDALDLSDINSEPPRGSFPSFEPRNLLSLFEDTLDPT
assay remarks: Recombinant human Myt1 kinase assay (ADP-Glo)
run conditions: 10 μM ATP
Lab note - cut at 8 nM for IC50: TRUE if strictly below, FALSE if not.

Record excerpt, results attached:
Is it true that IC50 reported for Cc1ccc2[nH]ncc2c1-c1nc(-c2cccnc2N[C@@H](c2cccnc2)C(F)F)nc(C(N)=O)c1N [Compound 937] is less than 8 nM?
TRUE

Is it true that IC50 reported for Cc1ccc2[nH]ncc2c1-c1cc(-c2cccc(OCc3ccccn3)n2)nc(C(N)=O)c1N [Compound 228] is less than 8 nM?
TRUE

Is it true that IC50 reported for Cc1ccc(O)c(C)c1-c1cc(-c2cccc(OC3CCOCC3)n2)nc(C(N)=O)c1N [Compound 94] is less than 8 nM?
TRUE

Is it true that IC50 reported for Cc1ccc2[nH]ncc2c1-c1nc(-c2cc(F)c(F)cc2NC2CCN(C)CC2)nc(C(N)=O)c1N [Compound 485] is less than 8 nM?
TRUE

Is it true that IC50 reported for Cc1ccc(O)c(C)c1-c1cc(Cl)nc(C(N)=O)c1N [Compound 17] is less than 8 nM?
FALSE

// next entry
Is it true that IC50 reported for Cc1ccc2[nH]ncc2c1-c1cc(Nc2ccccc2)nc(C(N)=O)c1N [Compound 335] is less than 8 nM?
FALSE

###

study system: recombinant human Myt1 (full length PKMYT1) (Homo sapiens (Human), UniProt Q99640)
assay remarks: Recombinant human Myt1 kinase assay (ADP-Glo)
run conditions: 10 μM ATP
assay metric: IC50 (nM)
Please reply with the bare figure in nM and do not write the unit itself.

Sample answers from the record:
Hi! What's the reported IC50 for Cc1ccc2[nH]ncc2c1-c1cc(-c2ccnc(OCCc3ccn(C)n3)n2)nc(C(N)=O)c1N on recombinant human Myt1 (full length PKMYT1) (Homo sapiens (Human), UniProt Q99640)?
9

Hi! What's the reported IC50 for Cc1nccc(Nc2cc(F)ccc2-c2nc(C(N)=O)c(N)c(-c3c(C)ccc4[nH]ncc34)n2)n1 on recombinant human Myt1 (full length PKMYT1) (Homo sapiens (Human), UniProt Q99640)?
5

Hi! What's the reported IC50 for Cc1ccc2[nH]ncc2c1-c1nc(-c2ccccc2C(O)c2ccccn2)nc(C(N)=O)c1N (stereo not shown) on recombinant human Myt1 (full length PKMYT1) (Homo sapiens (Human), UniProt Q99640)?
44

Let us examine a further case.
Hi! What's the reported IC50 for Cc1ccc2[nH]ncc2c1-c1cc(-c2cccc(OCc3ccnnc3)n2)nc(C(N)=O)c1N on recombinant human Myt1 (full length PKMYT1) (Homo sapiens (Human), UniProt Q99640)?
5
